# Lookup of reported pKi keyed by entry
experimental target: hCA XIII (Homo sapiens, UniProt Q8N1Q1)
Sequence (Q8N1Q1 whole entry): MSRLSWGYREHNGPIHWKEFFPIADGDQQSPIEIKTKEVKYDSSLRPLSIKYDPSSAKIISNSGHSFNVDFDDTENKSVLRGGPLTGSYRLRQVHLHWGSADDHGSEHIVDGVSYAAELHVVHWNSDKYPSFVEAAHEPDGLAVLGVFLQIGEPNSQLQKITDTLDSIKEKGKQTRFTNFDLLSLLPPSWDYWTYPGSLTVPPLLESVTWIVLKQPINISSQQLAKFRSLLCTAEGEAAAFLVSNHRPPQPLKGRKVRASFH
Schema: pKi number; meaning minus log10 of the concentration expressed in molar units.

N#Cc1cc(Cl)cc(Oc2c(Br)ccc(CC(=O)Nc3ccc(S(N)(=O)=O)cc3Cl)c2F)c1 [VM1500A] ... 7.28

Turning now to a further record.
Record CCC(=O)NS(=O)(=O)c1ccc(NC(=O)Cc2ccc(Br)c(Oc3cc(Cl)cc(C#N)c3)c2F)c(Cl)c1 [elsulfavirine] . Reported pKi: 5.32

====

# Lookup of reported pKi keyed by entry
experimental target: hCA III (Homo sapiens)
Sequence (P07451 whole entry): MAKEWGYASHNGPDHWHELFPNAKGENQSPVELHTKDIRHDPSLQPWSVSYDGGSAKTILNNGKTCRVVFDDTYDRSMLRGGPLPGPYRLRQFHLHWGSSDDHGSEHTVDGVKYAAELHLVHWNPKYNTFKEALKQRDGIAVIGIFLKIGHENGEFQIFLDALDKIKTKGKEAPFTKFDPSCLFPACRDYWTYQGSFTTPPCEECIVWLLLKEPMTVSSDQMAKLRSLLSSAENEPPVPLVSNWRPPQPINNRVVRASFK
experimental details: Stopped flow CO2 hydrase assay, hCA III
pKi: −log10 of the molar value.

CCC(=O)NS(=O)(=O)c1ccc(NC(=O)Cc2ccc(Br)c(Oc3cc(Cl)cc(C#N)c3)c2F)c(Cl)c1 ... < 4.00

Turning now to a further record.
Record N#Cc1cc(Cl)cc(Oc2c(Br)ccc(CC(=O)Nc3ccc(S(N)(=O)=O)cc3Cl)c2F)c1 [VM1500A] . Reported pKi: < 4.00

====

# Lookup of reported Ki keyed by entry
experimental target: hCA VA (Homo sapiens, UniProt P35218)
Sequence (P35218 39-305): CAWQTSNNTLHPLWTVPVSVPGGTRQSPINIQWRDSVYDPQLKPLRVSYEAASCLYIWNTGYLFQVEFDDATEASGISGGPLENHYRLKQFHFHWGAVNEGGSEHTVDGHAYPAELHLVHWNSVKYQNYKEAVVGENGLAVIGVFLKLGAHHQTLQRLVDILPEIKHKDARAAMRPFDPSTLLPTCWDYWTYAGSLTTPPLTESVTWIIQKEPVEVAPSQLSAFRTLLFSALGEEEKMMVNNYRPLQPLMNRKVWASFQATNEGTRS
Write the number in nM without appending the unit.

N#Cc1cc(Cl)cc(Oc2c(Br)ccc(CC(=O)Nc3ccc(S(N)(=O)=O)cc3Cl)c2F)c1 [VM1500A] ... 537

For the molecule `CCC(=O)NS(=O)(=O)c1ccc(NC(=O)Cc2ccc(Br)c(Oc3cc(Cl)cc(C#N)c3)c2F)c(Cl)c1` , the measured Ki on hCA VA (Homo sapiens, UniProt P35218) was 4290

====

Lab note: pKi readings collected with hCA IX (Homo sapiens) for the following compounds.
Schema: pKi number; meaning minus log10 of the concentration expressed in molar units.

For the compound CCC(=O)NS(=O)(=O)c1ccc(NC(=O)Cc2ccc(Br)c(Oc3cc(Cl)cc(C#N)c3)c2F)c(Cl)c1 [elsulfavirine] , the measured pKi on hCA IX (Homo sapiens) was 5.18

For the compound N#Cc1cc(Cl)cc(Oc2c(Br)ccc(CC(=O)Nc3ccc(S(N)(=O)=O)cc3Cl)c2F)c1 [VM1500A] , the measured pKi on hCA IX (Homo sapiens) was 7.14

====

experimental target: UniProtKB Q9ULX7
Sequence (Q9ULX7 16-337): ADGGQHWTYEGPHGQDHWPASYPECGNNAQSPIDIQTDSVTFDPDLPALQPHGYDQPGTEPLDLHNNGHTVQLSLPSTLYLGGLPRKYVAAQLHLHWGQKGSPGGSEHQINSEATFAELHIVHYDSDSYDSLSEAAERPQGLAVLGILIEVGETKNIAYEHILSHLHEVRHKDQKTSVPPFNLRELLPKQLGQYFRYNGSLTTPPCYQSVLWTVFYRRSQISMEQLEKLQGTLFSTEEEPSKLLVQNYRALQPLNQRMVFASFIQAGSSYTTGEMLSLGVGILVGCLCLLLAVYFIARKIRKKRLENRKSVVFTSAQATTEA
# Lookup of reported pKi keyed by entry
Schema: pKi number; meaning minus log10 of the concentration expressed in molar units.

N#Cc1cc(Cl)cc(Oc2c(Br)ccc(CC(=O)Nc3ccc(S(N)(=O)=O)cc3Cl)c2F)c1 [VM1500A] ... 7.81

Turning now to a further record.
For the molecule `CCC(=O)NS(=O)(=O)c1ccc(NC(=O)Cc2ccc(Br)c(Oc3cc(Cl)cc(C#N)c3)c2F)c(Cl)c1` , the measured pKi on UniProtKB Q9ULX7 was 5.71

====

# Lookup of reported pKi keyed by entry
experimental target: hCA II (Homo sapiens)
experimental details: Stopped flow CO2 hydrase assay, hCA II
Schema: pKi number; meaning minus log10 of the concentration expressed in molar units.

CCC(=O)NS(=O)(=O)c1ccc(NC(=O)Cc2ccc(Br)c(Oc3cc(Cl)cc(C#N)c3)c2F)c(Cl)c1 ... 4.90

Turning now to a further record.
Record N#Cc1cc(Cl)cc(Oc2c(Br)ccc(CC(=O)Nc3ccc(S(N)(=O)=O)cc3Cl)c2F)c1 [VM1500A] . Reported pKi: 7.45
